// provenance: ChEMBL document CHEMBL1122519

Test system: Escherichia coli
Assay: Antimicrobial minimum inhibitory concentration against Escherichia coli 100/B22
Format: functional
Measured MIC accompanies every entry in the list below.

| Molecule | MIC |
| --- | --- |
| Br.Br.CCCCCCN=c1ccn(CCCCCCCCn2ccc(=NCCCCCC)cc2)cc1 | 3.9 µg/mL |
| Br.Br.CCCCCCCN=c1ccn(CCCCn2ccc(=NCCCCCCC)cc2)cc1 | 15.6 µg/mL |
| Br.Br.CCCCCCCCN=c1ccn(CCCCCCCCCCCCn2ccc(=NCCCCCCCC)cc2)cc1 | 2 µg/mL |
| CCCCCCCN=c1ccn(CCCCCCn2ccc(=NCCCCCCC)cc2)cc1.Cl.Cl | 2 µg/mL |
| Br.Br.CCCCCCCCN=c1ccn(CCCCCCCCCCCCCCn2ccc(=NCCCCCCCC)cc2)cc1 | 3.9 µg/mL |

Tell me the measured MIC of `CCCCCCCN=c1ccn(CCCCCCCCCCCCn2ccc(=NCCCCCCC)cc2)cc1.Cl.Cl` , please.
0.5 µg/mL

Query (molecule): `Br.Br.Clc1ccc(N=c2ccn(CCCCCn3ccc(=Nc4ccc(Cl)cc4)cc3)cc2)cc1` ; field requested: MIC
125 µg/mL

Request the reported MIC associated with `Br.Br.Fc1ccc(N=c2ccn(CCCCCCCCn3ccc(=Nc4ccc(F)cc4)cc3)cc2)cc1`
15.6 µg/mL

Which value of MIC has been reported for `Br.Br.CCCCCCCCN=c1ccn(CCCCCCCn2ccc(=NCCCCCCCC)cc2)cc1` in the records?
1 µg/mL

// MIC lookup, key: `CS(=O)(=O)O.CS(=O)(=O)O.Clc1ccc(N=c2ccn(CCCCCCn3ccc(=Nc4ccc(Cl)cc4)cc3)cc2)cc1`
15.6 µg/mL

Fill blank: measured MIC of the molecule `CCCCCCCCN=c1ccn(CCCCCCCCCn2ccc(=NCCCCCCCC)cc2)cc1.Cl.Cl` is ____.
1 µg/mL

Recorded MIC of `Br.Br.CCCCCCCCCCN=c1ccn(CCCCCCCCCCn2ccc(=NCCCCCCCCCC)cc2)cc1` , please.
15.6 µg/mL

So what does the record say about MIC for `Br.Br.c1cn(CCCCCn2ccc(=NC3CCCCC3)cc2)ccc1=NC1CCCCC1` ?
> 500 µg/mL

* * *

System: Streptococcus mutans
Assay: Minimum plaque inhibitory concentration using a standard test organism, Streptococcus mutans OMZ-61
Format: functional, organism-based
Property Measured: Concentration

Consider the worked cases shown below.
| Line Notation | Concentration |
| --- | --- |
| CCCCCCCN=c1ccn(CCCCCCCCCCCCCCn2ccc(=NCCCCCCC)cc2)cc1.Cl.Cl | 0.01% |
| Br.Br.CCCCCCCN=c1ccn(CCCCCn2ccc(=NCCCCCCC)cc2)cc1 | > 1% |
| Br.Br.c1cn(CCCCCCCCn2ccc(=NC3CCCCC3)cc2)ccc1=NC1CCCCC1 | > 1% |
| Br.Br.CCCCCCN=c1ccn(CCCCCCn2ccc(=NCCCCCC)cc2)cc1 | 1% |
| Br.Br.Fc1ccc(N=c2ccn(CCCCCCn3ccc(=Nc4ccc(F)cc4)cc3)cc2)cc1 | > 1% |
| Br.Br.CCCCCCCCCCN=c1ccn(CCCCCCCn2ccc(=NCCCCCCCCCC)cc2)cc1 | 0.01% |

If you can, please state the reported Concentration value of `Br.Br.CCCCCCN=c1ccn(CCCCCCCn2ccc(=NCCCCCC)cc2)cc1` .
> 1%

Entry `Br.Br.Clc1ccc(N=c2ccn(CCCCCCCCCn3ccc(=Nc4ccc(Cl)cc4)cc3)cc2)cc1` : reported Concentration = ?
> 1%

Entry `Br.Br.c1cn(CCCCCCCn2ccc(=NC3CCCCC3)cc2)ccc1=NC1CCCCC1` : reported Concentration = ?
> 1%

* * *

Tested on: Escherichia coli
Assay: Antimicrobial minimum inhibitory concentration against Escherichia coli 100/B22
Assay type: functional
Property Measured: MIC (µg/mL)
Just the number in µg/mL, nothing appended.

Worked set:
| Molecule | Endpoint Unit | MIC |
| --- | --- | --- |
| Br.Br.CCCCCCCCCCCCN=c1ccn(CCCCCCCCCn2ccc(=NCCCCCCCCCCCC)cc2)cc1 | µg/mL | 62.5 |
| Br.Br.c1cn(CCCCCCCCCCn2ccc(=NC3CCCCC3)cc2)ccc1=NC1CCCCC1 | µg/mL | 15.6 |
| Br.Br.CCCCCCN=c1ccn(CCCCCn2ccc(=NCCCCCC)cc2)cc1 | µg/mL | 62.5 |
| Br.Br.Clc1ccc(N=c2ccn(CCCCCCCn3ccc(=Nc4ccc(Cl)cc4)cc3)cc2)cc1 | µg/mL | 3.9 |
| CCCCCCCCCN=c1ccn(CCCCCCn2ccc(=NCCCCCCCCC)cc2)cc1.Cl.Cl | µg/mL | 2 |

Please examine the following record next.
So what's the measured MIC for this one? Br.Br.CCCCC(CC)CN=c1ccn(CCCCCCCCCCn2ccc(=NCC(CC)CCCC)cc2)cc1 (configuration not stated)
0.8
